# Measured target: SfurOBP11 (Sogatella furcifera)
# Procedure details: biochemical
# Type: binding
# Condition label: ligand concentration 6, replicate 3
Provide the reported Fluorescence intensity, fluorescence competitive binding assay, OBP11 of each item.
Answer as a number with no unit attached.

## Task Data request, read-out Fluorescence intensity, fluorescence competitive binding assay, OBP11, for "C/C(=C\CO)CCC[C@H](C)CCC[C@H](C)CCCC(C)C"
## Result 17383

## Task Then what about the compound "COC(=O)c1ccccc1" ?
## Result 27787

## Task Queued: "CCCCCCCC"
## Result 29894

## Task Try this compound too: "CCCCCCCCCCOCCCCCCCCCC"
## Result 52439

## Task What do you get for "c1ccc2ccccc2c1" ?
## Result 32552

## Task Another compound to check: "CC1=CC[C@@H](C(C)(C)O)CC1"
## Result 30576

###

Could you please report measured Fluorescence competitive binding assay, OBP2 (raw fluorescence reading) for the items listed next?
# Measured target: SfurOBP2 (Sogatella furcifera, UniProt V5T759)
# Sequence (V5T759 entry or part of it): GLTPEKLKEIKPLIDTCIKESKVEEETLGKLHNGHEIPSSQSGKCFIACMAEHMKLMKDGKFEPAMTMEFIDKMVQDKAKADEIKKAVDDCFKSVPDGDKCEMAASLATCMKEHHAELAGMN
# Procedure details: biochemical
# Format: binding
# Condition label: ligand concentration 16 (unit not given), replicate column 2 of 3
// return a plain number; no unit text

## Task Give its Fluorescence competitive binding assay, OBP2 (raw fluorescence reading) value. Item: CC(=O)/C=C/C1=C(C)CCCC1(C)C [β-Ionone]
## Result 12873

## Task Record: C=C1CC/C=C(\C)CC[C@@H]2[C@@H]1CC2(C)C [β-caryophyllene]
## Result 16590

## Task Query c1ccc2ccccc2c1 [naphthalene] next
## Result 15544

###

# Measured target: SfurOBP11 (Sogatella furcifera)
# Procedure details: biochemical
# Format: binding
# Condition label: ligand concentration 10, replicate 2
Provide the recorded Fluorescence intensity, fluorescence competitive binding assay, OBP11 for the entries that follow.
The response must contain the number and no unit.

## Task Quick one: Fluorescence intensity, fluorescence competitive binding assay, OBP11 for "CCCCCCCCCCCCCCCC" ?
## Result 20422

## Task Same read-out for "CCCCCCCCCCC" ?
## Result 30287

## Task Subsequent entry: "CCCCCCCCCCCCCCCCCC"
## Result 29436

## Task Similarly, C=CC(C)(O)CCC=C(C)CCC=C(C)C (mixture of isomers) ?
## Result 22095

###

Would you mind telling me the reported Fluorescence competitive binding assay, OBP2 (raw fluorescence reading) of each entry?
# Measured target: SfurOBP2 (Sogatella furcifera)
# Procedure details: biochemical
# Assay type: binding
# Condition label: ligand concentration 18 (unit not given), replicate column 3 of 3
Number only, please.

## Task Query: Fluorescence competitive binding assay, OBP2 (raw fluorescence reading); subject: CC(C)COC(=O)CCCCC(=O)OCC(C)C [DA(diisobutyl adipate)]
## Result 14360

## Task Ok, now "CCCCCCCCCCCCCCCCCCC"
## Result 25338

## Task // repeat for CCCCCCCCCCCCCCCC(=O)OC [MH(methyl hexadecanoate)] and report
## Result 73816

## Task Lookup "O=Cc1ccccc1"
## Result 12075

###

# Measured target: SfurOBP11 (Sogatella furcifera)
# Procedure details: biochemical
# Assay type: binding
# Condition label: ligand concentration 12, replicate 1
Exercise: for every item that follows, state its recorded Fluorescence intensity, fluorescence competitive binding assay, OBP11.
API doc: respond with a numeric literal and nothing else, no unit.

## Task Enter reported Fluorescence intensity, fluorescence competitive binding assay, OBP11 observed with SfurOBP11 (Sogatella furcifera) for CCCCCCCCCCCCO [lauryl alcohol]
## Result 20961

## Task Please answer likewise for CCCCCCCCCCOCCCCCCCCCC [didecyl ether]
## Result 60450

## Task Try the compound CCCCCCCC [n-octane]
## Result 24273

## Task Same again, this time with Cc1ccc(C(C)C)cc1 [4-isopropyltoluene]
## Result 23828

## Task Consider next the compound CC(=O)/C=C/C1=C(C)CCCC1(C)C [β-Ionone] in the same way.
## Result 20048

## Task Try this compound next: C=CC(C)(O)CCC=C(C)CCC=C(C)C (mixture of isomers) [nerolidol]
## Result 21169

###

# Measured target: SfurOBP11 (Sogatella furcifera)
# Procedure details: biochemical
# Type: binding
# Condition label: ligand concentration 6, replicate 1
Answer each item with its documented Fluorescence intensity, fluorescence competitive binding assay, OBP11.
// keep it numeric: no unit symbol after the value

## Task Fluorescence intensity, fluorescence competitive binding assay, OBP11 lookup needed for O=C(c1ccccc1)c1ccccc1 [benzophenone] , thanks.
## Result 19889

## Task Same question for CCCCCCCCCCCCCCCC(=O)OC [MH(methyl hexadecanoate)] please.
## Result 36335

## Task Do the same for C=C1CC/C=C(\C)CC[C@@H]2[C@@H]1CC2(C)C [β-caryophyllene] please
## Result 23526

###

# Measured target: SfurOBP11 (Sogatella furcifera)
# Procedure details: biochemical
# Assay type: binding
# Condition label: ligand concentration 14, replicate 1
Rule: Fluorescence intensity, fluorescence competitive binding assay, OBP11 of 20000 or more gives 1; anything lower gives -1.

## Task Record c1ccc2ccccc2c1 [naphthalene] ; criterion: Fluorescence intensity, fluorescence competitive binding assay, OBP11 no lower than 20000. Met?
## Result 1

## Task Ok, now CCCCCCCCCCCCC=O [tridecanal]
## Result 1

## Task Queued: C=C(C)C1CC=C(C)CC1 (single isomer, unassigned; (+)) [(+)-limonene]
## Result -1

## Task One more molecule: C=CC(C)(O)CCC=C(C)C (stereo not drawn) [linalool]
## Result 1

## Task What do you have for CCCCCC=O [caproaldehyde] ?
## Result 1

## Task Okay, and O=Cc1ccccc1 [benzaldehyde] ?
## Result 1

## Task Field entry: C[C@@H]1CC[C@H]2C(C)(C)[C@H]3C[C@@]12CC[C@@]3(C)O [cedrol]
## Result 1

## Task Record: Cc1ccc(C(C)C)cc1 [4-isopropyltoluene]
## Result 1

## Task And what about the molecule CC/C=C\CCO [(Z)-3-hexenol] ?
## Result -1

## Task Now consider C=C1CC/C=C(\C)CC[C@@H]2[C@@H]1CC2(C)C [β-caryophyllene] and answer again.
## Result 1

## Task Now consider OC1CCCCC1 [cyclohexanol] .
## Result 1

## Task Also check CCCCCCCC [n-octane]
## Result 1

###

For each entry below, report its Fluorescence intensity, fluorescence competitive binding assay, OBP11 value.
# Measured target: SfurOBP11 (Sogatella furcifera, UniProt V5T6E3)
# Sequence (V5T6E3 entry or part of it): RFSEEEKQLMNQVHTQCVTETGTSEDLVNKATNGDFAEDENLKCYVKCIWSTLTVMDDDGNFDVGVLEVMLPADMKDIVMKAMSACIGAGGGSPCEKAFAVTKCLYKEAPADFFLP
# Procedure details: biochemical
# Assay type: binding
# Condition label: ligand concentration 16, replicate 3
Output spec: single numeric token, no unit.

## Task Fill blank: measured Fluorescence intensity, fluorescence competitive binding assay, OBP11 of the compound "O=Cc1ccccc1" is ____.
## Result 20008

## Task # repeat for "C=C1CC/C=C(\C)CC[C@@H]2[C@@H]1CC2(C)C"
## Result 23415

## Task # repeat for "COC(=O)c1ccccc1"
## Result 17724

###

Exercise: for every item that follows, state its recorded Fluorescence competitive binding assay, OBP2 (raw fluorescence reading).
# Measured target: SfurOBP2 (Sogatella furcifera)
# Procedure details: biochemical
# Assay type: binding
# Condition label: ligand concentration 12 (unit not given), replicate column 2 of 3
# Procedure: Thirty-six rice odorants ([He et al., 2014]; [Wang et al., 2017]) and 1-N-phenyl-naphthylamine (1-NPN) were purchased from Sigma-Aldrich (St Louis, MO, USA). […] Fluorescence competitive binding assays were performed on Tecan Spark 10M (Tecan Group Ltd., Männedorf, Switzerland) with the F96 Black ELIAS Plate (Sangon) ([Khuhro et al., 2017]; [Liu et al., 2017]). The solutions were excited at 337 nm and emission spectra were recorded between 390 and 490 nm. […]
When you answer, write just the number.

## Task Can you share its Fluorescence competitive binding assay, OBP2 (raw fluorescence reading)? I mean this molecule: CCC/C=C/CO [(E)-2-hexenol]
## Result 14543

## Task Please do the same for "CCCCCCCC=O" as well.
## Result 26722

## Task What do you get for "CCCCCCCCCCC" ?
## Result 13447

## Task Another: "CC(=O)c1ccccc1"
## Result 16437

## Task Same question, "CCCCCCCCCCCCC=O" this time
## Result 18259

## Task Do the same for "CCCCCCCCCCCCCCCC" please
## Result 12682

## Task Quick one: "Cc1cc(C(C)(C)C)c(O)c(C(C)(C)C)c1"
## Result 14795

## Task Next entry: "CC(=O)/C=C/C1=C(C)CCCC1(C)C"
## Result 15758

## Task What would you report for "C=C/C(C)=C/C/C=C(\C)CCC=C(C)C" ?
## Result 19243

## Task For C=CC(C)(O)CCC=C(C)CCC=C(C)C (mixture of isomers) then?
## Result 13085

## Task What do you get for "O=Cc1ccccc1" ?
## Result 13742

## Task Same question for CCCCCCCCCCCCCCCC(=O)OC [MH(methyl hexadecanoate)] please.
## Result 51896
